Reported GI50 by item:
Test system: SF-268
Assay: NCI tumour cell line growth inhibition, 48 h
Calls of active or inactive are those of the source. Rule as the data show it: active = GI50 up to about 1.1 µM and inactive = higher.
observedProperty: GI50

compound=COc1ccc(C)cc1NC(=S)N/N=C/c1ccco1 assayvalue="56.1 µM (inactive)"
compound="CC1(C)Oc2ccc3c(=O)c(-c4ccccc4)c(-c4ccccc4)oc3c2C1C(=O)O (stereo not drawn)" assayvalue="> 100 µM (inactive)"
compound=CCN(CC)c1ccc(/C=C/C=C2C(=O)NC(=S)NC2=O)cc1 assayvalue="22.5 µM (inactive)"
compound="C=C1C(=O)C23CC1C[C@H](OC(C)=O)[C@H]2C1(C)C(OC(C)=O)C[C@H](O)C(C)(C)[C@H]1C(=O)[C@@H]3OC(C)=O (stereo partly drawn)" assayvalue="9.08 µM (inactive)"
compound=CCOC(=O)/C(=C/c1ccc(C#N)cc1)N(CC)CC assayvalue="> 100 µM (inactive)"
compound="COc1cc(OCCN(C)C)c2[nH]c(C(=O)N3CC(CCl)c4c3cc(N)c3ccccc43)cc2c1 (stereo not drawn)" assayvalue="< 0.01 µM (active)"
compound=COc1ccc(/C=C2\C(=O)N(C(=O)Cc3ccccc3)N=C2C)cc1OC assayvalue="> 100 µM (inactive)"
compound="CCOC(=O)c1cc(C2CCN(CC(C)CC)C2=S)c(-c2cc(C)no2)[nH]1 (stereo not drawn)" assayvalue="69.3 µM (inactive)"

----------
Tested on: M19-MEL
Assay: NCI tumour cell line growth inhibition, 48 h
The source made the active and inactive calls. No stated cut-off is given here; in the data, active = GI50 up to about 1.1 µM and inactive = higher.
Quick list: GI50 per entry.
observedProperty: GI50

compound=O=C(c1ccccc1)n1cc(/C=C/[N+](=O)[O-])c2ccccc21 assayvalue="20.8 µM (inactive)"
compound=N#C/N=C(/N)NCN/C(N)=N\C#N assayvalue="> 100 µM (inactive)"
compound="Cc1cc(Cl)ccc1NC(=O)C(=O)C(C(=O)c1ccccc1)C1OC(=O)c2ccccc21 (stereo not drawn)" assayvalue="> 100 µM (inactive)"

----------
Test system: SK-MEL-28
Assay: NCI tumour cell line growth inhibition, 48 h
Calls of active or inactive are those of the source. No stated cut-off is given here; in the data, active = GI50 up to about 1.1 µM and inactive = higher.
Possible outcomes: active, inactive

molecule=Cc1ccc(-c2cc(-c3ccc(Cl)cc3)nc(/N=C3\C(=O)N(CN4CCCCC4)c4ccc(Cl)cc43)n2)cc1 group=inactive
molecule=N#Cc1c(O)c(/N=N/c2ccccc2F)c(=O)n2c1[nH]c1ccccc12 group=inactive
molecule="CC(=O)NC1C(OCc2ccccc2)OC(CO)C(O)C1OCC(=O)N1CCCC1C(=O)N[C@@H](CCC(=O)NCCCCNc1c2ccccc2nc2cccc([N+](=O)[O-])c12)C(N)=O (some centres not stated)" group=inactive
molecule="CCN(CC)c1ccc2c(c1)Oc1ccc(N(C(C)=O)c3ccccc3)cc1C21OC(=O)c2ccccc21 (configuration not stated)" group=inactive
molecule="Cc1cc(Br)cc(C)c1NC(=O)C(=O)C(C(=O)c1ccc2ccccc2c1)C1OC(=O)c2ccccc21 (configuration not stated)" group=inactive
molecule=CNC(=O)OCc1c2ccncc2c(C)c2c1[nH]c1ccccc12 group=active
molecule=O=C(NNc1nc(-c2ccccc2)cs1)C(F)(F)F group=inactive
molecule=CCCCc1c(O)nc(Nc2nc3ccccc3[nH]2)[nH]c1=O group=inactive
molecule=Cc1cc(S(=O)(=O)N/C(=N/N)NCCc2ccccc2)c(S)cc1Cl group=inactive
molecule=Cc1nc(N)c(N2CCN(S(N)(=O)=O)CC2)c(O)n1 group=inactive
molecule="CCC12CCCN(Cc3ccccc3)C1c1c(n(C)c3ccccc13)[C@H](C(=O)OC)C2 (some centres not stated)" group=inactive
molecule=Cc1cc(NC(=O)NC(=O)c2ccccc2NC(=O)CN(C)C)ccc1Oc1ncc(Br)cn1 group=inactive

----------
Tested on: COLO 205
Test: NCI tumour cell line growth inhibition, 48 h
Active and inactive are the calls of the source. No stated cut-off is given here; in the data, active = GI50 up to about 1.1 µM and inactive = higher.
observedProperty: GI50

compound=N#C/C(C(=O)Nc1ccccc1)=C(/N)N1CCCCC1 assayvalue="> 100 µM (inactive)"
compound=CCOC(=O)C(Cc1cc(OC)c(CC(C(=O)OCC)C(=O)OCC)cc1OC)C(=O)OCC assayvalue="> 100 µM (inactive)"
compound="CCOC(=O)C1=C(OC(OCC)C([Se]c2ccccc2)C(C)C)CCC1 (stereo not drawn)" assayvalue="14.7 µM (inactive)"
compound=Cn1ccnc1Sc1ccc(/C=N\NC(=O)c2cccc(F)c2)cc1[N+](=O)[O-] assayvalue="> 100 µM (inactive)"
compound=O=c1[nH]c2c3ccccc3ccc2c2cc3c(cc12)OCO3 assayvalue="> 100 µM (inactive)"
compound=CCCCN1C(=O)C[C@H]2[C@@H]3CCc4cc(OCCN5CCCC5)ccc4[C@H]3CC[C@]2(C)C1=O assayvalue="1.92 µM (inactive)"
compound=C1CCCN(NC2=NCCO2)CC1 assayvalue="> 100 µM (inactive)"
compound=O=C(NNc1nc(-c2ccccc2)cs1)C(F)(F)F assayvalue="35.8 µM (inactive)"
compound="CC1=CCP(C(F)(F)F)P(C(F)(F)F)C1 (stereo not drawn)" assayvalue="> 100 µM (inactive)"
compound=COC(=O)C1=C(C(=O)OC)C(N(C)C)C(C(=O)OC)=C(C(=O)OC)S1 assayvalue="> 100 µM (inactive)"
compound="COc1ccc2c(c1O)C13CCN(C)C(C2)C1CCC1(C3)OCCO1 (stereo not drawn)" assayvalue="> 100 µM (inactive)"
compound="C=C1C(=O)OC2C1C(OC(=O)/C(C)=C\\C)CC1(CO1)C1C(O)C=C(C)C21O (stereo not drawn)" assayvalue="1.17 µM (inactive)"
compound="COC(=O)C1OC(O[C@H]2CC[C@]3(C)[C@H]4CC=C5[C@@H]6CC(C)(C)CC[C@]6(C(=O)OC6OCC(O)C(O)C6OC6OC(C)C(OC7OCC(O)C(O)C7O)C(OC7OCC(O)(CO)C7O)C6O)[C@H](O)C[C@@]5(C)[C@]4(C)CC[C@H]3C2(C)C)C(O)C(O)C1O (stereo partly drawn)" assayvalue="1.57 µM (inactive)"
compound="COc1cccc(C2CC23C(=O)NC(=O)NC3=O)c1 (stereo not drawn)" assayvalue="> 100 µM (inactive)"
compound=O=C1CCC2(CCC(=O)NC2=O)C(=O)N1 assayvalue="> 100 µM (inactive)"
compound=CN1COc2c(n(C)c(=O)[nH]c2=O)C1 assayvalue="59 µM (inactive)"
compound=COC1=CC(=O)c2c(c(-c3csc(C)n3)cn2C)C1=O assayvalue="19.8 µM (inactive)"
compound=O=C(/C=C(\O)c1cc(-c2ccccc2)n(-c2ccccc2)n1)c1ccccc1 assayvalue="4.69 µM (inactive)"
compound=CC(C)=Cc1cc(CCC/C(C)=C/Cc2c(O)cc(C)c(C(=O)O)c2O)co1 assayvalue="> 100 µM (inactive)"
compound=Cc1ccccc1NC(=O)Cc1csc2[n+]1C(=O)/C(=C/c1ccc([N+](=O)[O-])cc1)S2 assayvalue="36 µM (inactive)"
compound=CCc1cc2c(cc1O)CC[C@@H]1[C@@H]2CC[C@]2(C)[C@@H](O)CC[C@@H]12 assayvalue="17.5 µM (inactive)"
compound=O=c1n(/N=C/c2ccccc2)c(=O)n2n1C1C=CC2CC1 assayvalue="> 100 µM (inactive)"
compound=CC(C)C(=O)/C=C/c1ccccc1 assayvalue="> 100 µM (inactive)"
compound=CC(C)c1cc(C(F)(F)F)nc(NNc2nc(C(C)C)cc(C(F)(F)F)n2)n1 assayvalue="> 100 µM (inactive)"
compound="C/C=C(C)/C=C/CC(C)CCC=C(C)C (stereo not drawn)" assayvalue="> 100 µM (inactive)"
compound=COC(=O)/C(C#N)=C(/NCc1ccccc1)Nc1ccccc1 assayvalue="73.1 µM (inactive)"
compound=Cc1nc(-n2nc(-c3ccccc3)cc2-c2ccccc2)sc1C(=O)/C=C/c1ccc(/C=C/C(=O)c2sc(-n3nc(-c4ccccc4)cc3-c3ccccc3)nc2C)cc1 assayvalue="20.2 µM (inactive)"
compound="CSc1nc(NC2OC(COC(C)=O)C(OC(C)=O)C(OC(C)=O)C2OC(C)=O)c(/N=C(\\C)C(C)=O)c(=O)[nH]1 (stereo not drawn)" assayvalue="> 100 µM (inactive)"
compound=N[C@@H]1CCN(c2c(F)cc3c(=O)c(C(=O)O)cn4c3c2Oc2c-4ccc3c2ccc2ccccc23)C1 assayvalue="2.99 µM (inactive)"
compound=CCCOc1cc2c(cc1O)CC[C@@H]1[C@@H]2CC[C@]2(C)[C@@H](O)CC[C@@H]12 assayvalue="12 µM (inactive)"
compound="Nc1ncn([C@@H]2C=C(CO)C(O)C2O)c(=O)n1 (stereo partly drawn)" assayvalue="37.8 µM (inactive)"
compound="COc1ccc(-c2cs/c(=N\\c3ccccc3)n2CC(O)c2ccc([N+](=O)[O-])cc2)cc1 (stereo not drawn)" assayvalue="> 100 µM (inactive)"
compound=COc1nc2ncc([C@@H](OC(C)=O)[C@@H](COC(C)=O)OC(C)=O)nc2c(=O)[nH]1 assayvalue="> 100 µM (inactive)"

----------
Tested on: K562
Assay: NCI tumour cell line growth inhibition, 48 h
Active and inactive are the calls of the source. No stated cut-off is given here; in the data, active = GI50 up to about 1.1 µM and inactive = higher.
Outcome codes: class 1 = active, class 0 = inactive

molecule=CC(C)NC(=O)OCc1c(COC(=O)NC(C)C)c(-c2cc[n+](COC(=O)Cc3ccccc3)cc2)n2c1CCC2 group="class 0"
molecule=CC(=O)/C(=N\O)C(=O)NCCc1ccccc1 group="class 0"
molecule="NC(CCc1ccccc1)(C(=O)O)c1ccccc1 (configuration not stated)" group="class 0"
molecule=Cn1c2ccccc2c2c(-c3ccccc3)cc3c(c21)C(=O)C=CC3=O group="class 1"
molecule="O=C(CC(C(=O)c1ccsc1)c1ccsc1)c1ccsc1 (configuration not stated)" group="class 0"
molecule="CO/N=C1\\CC(C)N2C(=O)C(C(C)C)NC(=O)C(NC(=O)c3c4nc5c(C(=O)NC6C(=O)NC(C(C)C)C(=O)N7C(C)CC(O)C7C(=O)N(C)CC(=O)N(C)C(C(C)C)C(=O)OC6C)ccc(C)c5oc-4c(C)c(=O)c3N)C(CO)OC(=O)C(C)N(C)C(=O)CN(C)C(=O)C12 (configuration not stated)" group="class 1"
molecule=CCOP(=O)(C/C(=N/NC(C)(C)C)C(=O)Nc1nc2ccc(C)cc2s1)OCC group="class 0"
molecule=Cn1cco/c1=N/c1ccc(Cl)c(Cl)c1 group="class 0"
molecule=O=C1C(c2c(O)[nH]c3ccc(F)cc23)=Nc2ccccc21 group="class 0"
molecule=O=C(/C=C/c1cccs1)c1ccc([N+](=O)[O-])cc1 group="class 0"
molecule=O=c1cc(N2CCCC2)[nH]c(=O)n1-c1cccc(C(F)(F)F)c1 group="class 0"
molecule="CC(CN1NC12CCCC2)N1NC12CCCC2 (configuration not stated)" group="class 0"
